Measured pKd by item
target: T1, σR (residues 5-227) (Streptomyces coelicolor, UniProt Q7AKG9 5-227); test: ITC; with zinc (+), RsrA preincubated with 1 mM ZnCl2 and buffer exchanged; direct titration for weaker binding mutants (methods: 10 μM RsrA in the cell, 100 μM σR in the syringe); 35 °C, 50 mM Tris pH 7.5, 100 mM NaCl, 2 mM DTT; single binding site model; details: both partners purified
T1 construct: ECF sigma factor σR (SigR) of Streptomyces coelicolor; residues 5-227 subcloned into pET21a with a C-terminal stop codon for tagless expression; also called sigma factor σR; SigR; source: E. coli BL21(DE3), purified without tags (ammonium sulfate precipitation, Q-Sepharose, Hi-Load S75)
pKd: −log10 of the molar value.

{"binder": "RsrA* C41S C44S (natural protein, Streptomyces coelicolor, UniProt Q7AKG8 1-105, looked up, source: E. coli BL21(DE3) pLysS, purified by a His-tag that was removed by thrombin; not shown: His tag, N-terminal, cleaved) MSAGEPHETDCSEILDHLYEFLDKEMPDSDAVKFEHHFEESSPSLEKYGLEQAVKKLVKRAAGQDDVPGDLRAKVMGRLDLIRSGQSVPEHDVAAAPSSSAPQES", "pKd": 6.53}
{"binder": "RsrA* C11S (natural protein, Streptomyces coelicolor, UniProt Q7AKG8 1-105, looked up, source: E. coli BL21(DE3) pLysS, purified by a His-tag that was removed by thrombin; not shown: His tag, N-terminal, cleaved) MSAGEPHETDSSEILDHLYEFLDKEMPDSDAVKFEHHFEECSPCLEKYGLEQAVKKLVKRAAGQDDVPGDLRAKVMGRLDLIRSGQSVPEHDVAAAPSSSAPQES", "pKd": 7.10}
{"binder": "RsrA* C11S C41S (natural protein, Streptomyces coelicolor, UniProt Q7AKG8 1-105, looked up, source: E. coli BL21(DE3) pLysS, purified by a His-tag that was removed by thrombin; not shown: His tag, N-terminal, cleaved) MSAGEPHETDSSEILDHLYEFLDKEMPDSDAVKFEHHFEESSPCLEKYGLEQAVKKLVKRAAGQDDVPGDLRAKVMGRLDLIRSGQSVPEHDVAAAPSSSAPQES", "pKd": 6.62}
{"binder": "RsrA V54A L57A (natural protein, Streptomyces coelicolor, UniProt Q7AKG8 1-105, looked up, also called RsrA Val54Ala Leu57Ala; source: E. coli BL21(DE3) pLysS, purified by a His-tag that was removed by thrombin; not shown: His tag, N-terminal, cleaved) MSCGEPHETDCSEILDHLYEFLDKEMPDSDCVKFEHHFEECSPCLEKYGLEQAAKKAVKRCCGQDDVPGDLRAKVMGRLDLIRSGQSVPEHDVAAAPSSSAPQES", "pKd": 6.98}
{"binder": "RsrA* C11H C41H C44H (natural protein, Streptomyces coelicolor, UniProt Q7AKG8 1-105, looked up, also called RsrA* Cys11His Cys41His Cys44His; source: E. coli BL21(DE3) pLysS, purified by a His-tag that was removed by thrombin; not shown: His tag, N-terminal, cleaved) MSAGEPHETDHSEILDHLYEFLDKEMPDSDAVKFEHHFEEHSPHLEKYGLEQAVKKLVKRAAGQDDVPGDLRAKVMGRLDLIRSGQSVPEHDVAAAPSSSAPQES", "pKd": 6.52}
{"binder": "RsrA V75A L79A (natural protein, Streptomyces coelicolor, UniProt Q7AKG8 1-105, looked up, also called RsrA Val75Ala Leu79Ala; source: E. coli BL21(DE3) pLysS, purified by a His-tag that was removed by thrombin; not shown: His tag, N-terminal, cleaved) MSCGEPHETDCSEILDHLYEFLDKEMPDSDCVKFEHHFEECSPCLEKYGLEQAVKKLVKRCCGQDDVPGDLRAKAMGRADLIRSGQSVPEHDVAAAPSSSAPQES", "pKd": 7.09}
